Catalogue of compounds with associated % Inhibition SHCA
tested on: Shattercane (SHCA); type: in vivo; conditions: […]; observed 9 days later (Table 30)

>  <compound>
CC1(C)OC(c2ccco2)CN1C(=O)C(Cl)Cl (stereo not drawn) [compound 1]

>  <experimental_system>
Shattercane (SHCA)

>  <% Inhibition SHCA / %>
30

$$$$
>  <compound>
O=C(C(Cl)Cl)N1CCCC12CCCC2 [compound 19]

>  <experimental_system>
Shattercane (SHCA)

>  <% Inhibition SHCA / %>
30

$$$$
>  <compound>
O=C(C(Cl)Cl)N1CCc2ccccc2C1c1ccccc1 (stereo not drawn) [compound 40]

>  <experimental_system>
Shattercane (SHCA)

>  <% Inhibition SHCA / %>
40

$$$$
>  <compound>
CC1(C)OC(c2cccs2)CN1C(=O)C(Cl)Cl (stereo not drawn) [compound 22]

>  <experimental_system>
Shattercane (SHCA)

>  <% Inhibition SHCA / %>
25

$$$$
>  <compound>
CCC1c2ccccc2CCN1C(=O)C(Cl)Cl (stereo not drawn) [compound 39]

>  <experimental_system>
Shattercane (SHCA)

>  <% Inhibition SHCA / %>
40

$$$$
>  <compound>
CC1(C)OC(c2cc3ccccc3o2)CN1C(=O)C(Cl)Cl (stereo not drawn) [compound 38]

>  <experimental_system>
Shattercane (SHCA)

>  <% Inhibition SHCA / %>
25

$$$$

----------
system: Corn; details: […]; observed 7 days after POE (Table 36)
Catalogue of molecules with associated % Inhibition Corn

>  <molecule>
CC(C)(C)c1ccccc1SCCC#N [compound 74]

>  <experimental_system>
Corn

>  <% Inhibition Corn / %>
60

$$$$
>  <molecule>
O=C(Oc1ccccc1)c1sc(Cl)nc1C(F)(F)F [compound 64]

>  <experimental_system>
Corn

>  <% Inhibition Corn / %>
60

$$$$
>  <molecule>
CC(Cl)C(=O)Nc1nc(C(F)(F)F)c(I)s1 (stereo not drawn) [compound 72]

>  <experimental_system>
Corn

>  <% Inhibition Corn / %>
60

$$$$
